Biological target: DRB1*0802 (DR8w2) (Homo sapiens, UniProt P01903+P01911, A100R/A103L/A169T/F76Y/H45Y/I96F/K41T/L162R/M171V/P40S/Q125H/Q178H/Q39Y/Q99D/R218S/R42G/S66Y/V115G/W38E)
Construct: Epstein-Barr virus (EBV) transformed homozygous cell lines were used as sources; endogenous in cells; host or cells: OLL (EBV-transformed homozygous B cell line)
Assay: biochemical
Format: binding
Conditions: read-out: Binding Capacity (IC 50% nM) Other Alleles DR8w2
Readout Kind: IC50

• CC[C@H](C)[C@H](N)C(=O)N1CCC[C@H]1C(=O)N[C@@H](CCC(N)=O)C(=O)N[C@@H](CCC(=O)O)C(=O)N[C@@H](Cc1c[nH]c2ccccc12)C(=O)N[C@@H](CCCCN)C(=O)N1CCC[C@H]1C(=O)N[C@@H](C)C(=O)N[C@H](C(=O)N[C@H](C(=O)N[C@H](C(=O)N[C@@H](CCCCN)C(=O)N[C@H](C(=O)N[C@@H](CC(C)C)C(=O)N1CCC[C@H]1C(=O)N[C@@H](C)C(=O)O)C(C)C)C(C)C)[C@@H](C)O)[C@@H](C)CC [Peptide 1136.21] = > 1000 nM
• CC[C@H](C)[C@H](NC(=O)[C@H](CC(=O)O)NC(=O)[C@H](CC(C)C)NC(=O)[C@@H](NC(=O)CNC(=O)[C@@H](NC(=O)[C@@H](NC(=O)[C@@H](NC(=O)[C@@H](NC(=O)[C@H](C)NC(=O)[C@H](CC(C)C)NC(=O)[C@@H](NC(=O)[C@H](CC(N)=O)NC(=O)[C@H](CO)NC(=O)[C@H](CC(C)C)NC(=O)[C@@H](N)CC(N)=O)C(C)C)[C@@H](C)O)[C@@H](C)CC)[C@@H](C)O)[C@@H](C)O)C(C)C)C(=O)O [Peptide 1136.24] = > 1000 nM

Moving on to the next molecule.
Prompt line: Requested read-out: IC50. Entry: CC(C)[C@H](NC(=O)[C@H](CO)NC(=O)[C@@H](NC(=O)[C@H](C)NC(=O)[C@H](CO)NC(=O)[C@H](CO)NC(=O)[C@H](C)NC(=O)[C@H](C)NC(=O)[C@H](Cc1ccc(O)cc1)NC(=O)[C@@H](NC(=O)[C@H](CO)NC(=O)CNC(=O)[C@H](CCC(N)=O)NC(=O)[C@@H]1CCCN1C(=O)[C@@H](N)CCC(=O)O)[C@@H](C)O)[C@@H](C)O)C(=O)N[C@@H](CC(=O)O)C(=O)O [Peptide 1136.71]
Response line: > 1000 nM
